# System: Bacillus subtilis
# PROTOCOL_SUMMARY: cleaved RNA product abundance (RNA/gDNA barcode ratio) relative to median wild-type variant (ratio to wild type); higher = more accumulation of the downstream cleavage product
# TEST_CONTEXT: experiment (reporter, strain, medium): exp 8a: truncated aprE reporter, strain BJT201 with 2% xylose (RNase J1 expressed); cleavage site: glnRA (positions -5 to +31 mutated)
OBSERVABLE: cleaved RNA product abundance
Number, no unit, nothing else.

Completed entries (count: 3):
- CGACATGTCCCGCTTCTTTCATTAATCCTTAAGCAACTGTTTTGCTATATACATTTACCTTTTAAGAGGAGGAAT: 0.419
- CGACATGTCCCGCTTCTTTCATTACTCCGTTACCAACTGTTTTGCTATATACATTTACCTTTTAAGAGGAGGAAT: 0.176
- CGACATGTCCCGCTTCTTTCATTAAACCGTTAGCAACTGTTTTTCTATATACATTTACCTTTTAAGAGGAGGAAT: 0.464

Consider the record given below.
Check Bacillus subtilis data and give cleaved RNA product abundance for CGACATGTCCCGCTTCTTTCATTAATCTGTTAGCAACTGTTATGCTATATACATTTACCTTTTAAGAGGAGGAAT .
0.799

---

Reported cleaved RNA product abundance values for the following sequences.
# Tested on: Bacillus subtilis
# PROTOCOL_SUMMARY: cleaved RNA product abundance (RNA/gDNA barcode ratio) relative to median wild-type variant (ratio to wild type); higher = more accumulation of the downstream cleavage product
# TEST_CONTEXT: experiment (reporter, strain, medium): exp 2b: truncated aprE reporter, strain BJT200; cleavage site: cggR-gapA (positions -7 to +36 mutated)
Number, no unit, nothing else.

Check Bacillus subtilis data and give cleaved RNA product abundance for ACAGACGAAGGAGCCGCAAAGAAGTTAGTAAGGAATGAATAATCCCTCAATATAAATATCTCTCACTTATTTAAA .
0.0912

Check Bacillus subtilis data and give cleaved RNA product abundance for ACAGACGAAGGAGCCGCAAAGAAGTTATTAAGGCATGAATAATCCCTCAATTTAAATATCTCTCACTTATTTAAA .
0.059

Check Bacillus subtilis data and give cleaved RNA product abundance for ACAGACGAAGGAGCCGCAAAGAAGTTATTAAGGGATAAATAATCCCTCCATATAAATATCTCTCACTTATTTAAA .
0.26

Check Bacillus subtilis data and give cleaved RNA product abundance for ACAGACGAAGGAGCCGCAAAGAAGTTATTAAGGGATGAATAATTCCTCCATATAAATATCTCTCACTTATTTAAA .
0.102

Check Bacillus subtilis data and give cleaved RNA product abundance for ACAGACGAAGGAGCCGCAAAGAAGTTATTAAGGGATGTATAATCCCCCAATATAAATATCTCTCACTTATTTAAA .
0.205

Check Bacillus subtilis data and give cleaved RNA product abundance for ACAGACGAAGGAGCCGCAAAGAAGTTGTAAAGGGATGAATAATCCCTCAATATAAATATCTCTCACTTATTTAAA .
0.272

Check Bacillus subtilis data and give cleaved RNA product abundance for ACAGACGAAGGAGCCGCAAAGAAGTTATTAAGCGATGAATAATCGCTCAATATAAATATCTCTCACTTATTTAAA .
0.561

---

# System: Bacillus subtilis
# PROTOCOL_SUMMARY: cleaved RNA product abundance (RNA/gDNA barcode ratio) relative to median wild-type variant (ratio to wild type); higher = more accumulation of the downstream cleavage product
# TEST_CONTEXT: experiment (reporter, strain, medium): exp 8a: truncated aprE reporter, strain BJT201 with 2% xylose (RNase J1 expressed); cleavage site: glnRA (positions -5 to +31 mutated)
Could you label it rule met if measured cleaved RNA product abundance is 0.5 or higher, and rule not met otherwise?

Here are 2 sequences together with their reported answers.
• CGACATGTCCCGCTTCTTTCATTAATCCGTTAGCAACTTTTTTGCTATATACAATTACCTTTTAAGAGGAGGAAT = rule met
• CGACATGTCCCGCTTCTTTCATTAATCCCTTAGCAACTGTTTTGCTAGATACATTTACCTTTTAAGAGGAGGAAT = rule not met

State whether the measured cleaved RNA product abundance reaches 0.5, counting equality as reaching it, for CGACATGTCCCGCTTCTTTCATTAATCCATTAGCAACTGTTTTACTATATACATATACCTTTTAAGAGGAGGAAT
rule not met

State whether the measured cleaved RNA product abundance reaches 0.5, counting equality as reaching it, for CGACATGTCCCGCTTCTTTCATTAATCCGTTAGCAACTGTTTTGCTATATACATTTACCCTTTAAGAGGAGGAAT
rule met

State whether the measured cleaved RNA product abundance reaches 0.5, counting equality as reaching it, for CGACATGTCCCGCTTCTTTCATTAAACCGTTAGCAACTGTTTTGCGATATACATTTACCTTTTAAGAGGAGGAAT
rule not met

State whether the measured cleaved RNA product abundance reaches 0.5, counting equality as reaching it, for CGACATGTCCCGCTTCTTTCATTAATACGTTAGAAACTGTTTTGCTATATACATTTACCTTTTAAGAGGAGGAAT
rule not met

State whether the measured cleaved RNA product abundance reaches 0.5, counting equality as reaching it, for CGACATGTCCCGCTTCTTTCATTAATGAGTTAGCAACTGTTTTGCTATATACATTTACCTTTTAAGAGGAGGAAT
rule met

State whether the measured cleaved RNA product abundance reaches 0.5, counting equality as reaching it, for CGACATGTCCCGCTTCTTTCATTATTCCGTTGGCAACTGTTTTGCTATATACATTTACCTTTTAAGAGGAGGAAT
rule met

State whether the measured cleaved RNA product abundance reaches 0.5, counting equality as reaching it, for CGACATGTCCCGCTTCTTTCATTAATCCCTTACCAACTGTTTTGCTATATACATTTACCTTTTAAGAGGAGGAAT
rule not met

Source of measurements: the supplement of paper PMC11780869
